Recorded values, source paper PMC9977316.

# Tgt: OAT1 (Homo sapiens)
# Sequence (Q4U2R8 whole entry): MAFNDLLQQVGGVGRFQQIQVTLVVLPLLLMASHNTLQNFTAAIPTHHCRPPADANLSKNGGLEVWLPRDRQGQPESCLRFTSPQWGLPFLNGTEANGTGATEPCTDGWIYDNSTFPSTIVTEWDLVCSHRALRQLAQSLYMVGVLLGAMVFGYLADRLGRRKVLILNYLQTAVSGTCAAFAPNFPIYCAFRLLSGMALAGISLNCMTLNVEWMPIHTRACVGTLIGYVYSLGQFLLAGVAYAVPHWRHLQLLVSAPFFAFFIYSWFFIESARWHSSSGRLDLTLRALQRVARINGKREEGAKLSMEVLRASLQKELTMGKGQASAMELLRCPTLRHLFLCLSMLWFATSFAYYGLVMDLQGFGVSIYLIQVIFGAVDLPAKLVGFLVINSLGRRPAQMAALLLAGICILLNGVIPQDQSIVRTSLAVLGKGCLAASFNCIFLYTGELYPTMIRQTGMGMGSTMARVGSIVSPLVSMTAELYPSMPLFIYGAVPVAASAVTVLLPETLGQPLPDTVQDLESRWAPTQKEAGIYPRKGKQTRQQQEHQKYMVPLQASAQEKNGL
# Method: In vitro OAT1 transport assay (inhibition of 6-carboxyfluorescein uptake)
# Method: Human embryonic kidney (HEK) cells stably overexpressing human OAT1 (SOLVO Biotechnology) were used for in vitro inhibition assays. […] Prior to functional assays, cells were plated in 96-well plates and grown for 24 hours or until confluent in media without blasticidin. […] Cells were rinsed 3 times in ice-cold PBS, and the fluorescence was measured using a fluorescence plate reader. IC50 values were calculated using GraphPad Prism 9. […]
As shown below, each of these molecules has a reported IC50 value.
Please state the number and follow it with the unit.

The examples below pair each entry with its known result.
Molecule: O=C(O)Cc1ccccc1O [2-hydroxyphenylacetate]
Tgt: OAT1 (Homo sapiens)
IC50: 39.2 µM
--
Molecule: O=C(O)/C=C/c1ccc(O)cc1 [4-hydroxycinnamate]
Tgt: OAT1 (Homo sapiens)
IC50: 13.3 µM
--
Molecule: O=C(O)CCc1c[nH]c2ccccc12 [indolepropionate]
Tgt: OAT1 (Homo sapiens)
IC50: 39.2 µM

# context switch: different molecule, same IC50
[Q] State its IC50 on OAT1 (Homo sapiens): C[C@H](CCC(=O)O)[C@H]1CC[C@H]2[C@@H]3CC[C@@H]4C[C@H](O)CC[C@]4(C)[C@H]3C[C@H](O)[C@]12C [deoxycholate]
[A] 19.2 µM

* * *

# Tgt: OAT1 (Mus musculus)
# Construct: from tissue; host or cells: living mice (kidney proximal tubule); Oat1-KO versus WT
# Sequence (Q8VC69 1-545): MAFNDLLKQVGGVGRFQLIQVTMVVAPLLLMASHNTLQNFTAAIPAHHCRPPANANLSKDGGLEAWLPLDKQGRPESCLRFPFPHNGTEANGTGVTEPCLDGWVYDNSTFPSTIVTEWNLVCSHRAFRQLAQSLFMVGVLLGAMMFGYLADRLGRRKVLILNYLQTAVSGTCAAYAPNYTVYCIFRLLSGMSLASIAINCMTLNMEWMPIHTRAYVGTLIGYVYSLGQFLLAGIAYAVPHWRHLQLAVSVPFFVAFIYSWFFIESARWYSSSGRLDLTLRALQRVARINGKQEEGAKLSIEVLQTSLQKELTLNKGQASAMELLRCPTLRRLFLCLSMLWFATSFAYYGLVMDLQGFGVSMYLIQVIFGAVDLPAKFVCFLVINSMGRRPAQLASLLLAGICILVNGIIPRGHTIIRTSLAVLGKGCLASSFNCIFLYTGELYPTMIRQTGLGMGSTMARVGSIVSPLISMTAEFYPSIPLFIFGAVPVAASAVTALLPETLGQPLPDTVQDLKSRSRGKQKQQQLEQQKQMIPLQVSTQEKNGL
# Method: Serum metabolomics, effect of genotype (Oat1-KO versus WT), 2-way ANOVA; further: key: Group 1: elevated by loss of Oat1 and elevated by microbiome depletion; Group 2: elevated by loss of Oat1 and decreased by microbiome depletion; Group 3: decreased by loss of Oat1 and elevated by microbiome depletion; Group 4: decreased by loss of Oat1 and decreased by microbiome depletion
# Type: in vivo
# Condition info: direction of serum change by loss of Oat1 and by microbiome depletion
Structures can show the parent of a compound that is named as a salt.
Measure: Status

Solved entries (count: 6):
Molecule: O=C(O)CCc1ccccc1.O=C(O)CCc1ccccc1 [3-phenylpropionate (hydrocinnamate)]
Status: Group 4
--
Molecule: O=C(O)Cc1cccc2cc[nH]c12 [1H-indole-7-acetic acid]
Status: Group 2
--
Molecule: O=S(=O)(O)Oc1ccccc1O [catechol sulfate]
Status: Group 2
--
Molecule: CC(=O)N[C@@H](CCCCN(C)C)C(=O)O [N2-acetyl,N6,N6-dimethyllysine]
Status: Group 3
--
Molecule: CC(C)C(O)(CC(=O)O)C(=O)O (stereo not shown) [2-isopropylmalate]
Status: Group 4
--
Molecule: OC[C@H]1OC[C@H](O)[C@@H](O)[C@@H]1O [1,5-anhydroglucitol (1,5-AG)]
Status: Group 1

[Q] Quick one: Status for CC(=O)N[C@@H](CO)C(=O)O [N-acetylserine] ?
[A] Group 4

[Q] // same read-out, input: CS(=O)(=O)CC[C@H](N)C(=O)O [methionine sulfone]
[A] Group 1

[Q] And then CC(=O)NCCCC[C@H](NC(C)=O)C(=O)O [N2,N6-diacetyllysine] , what is it?
[A] Group 3

[Q] And then C=CCc1ccc(OS(=O)(=O)O)cc1 [4-allylphenol sulfate] , what is it?
[A] Group 2

[Q] What would you report for CC(=O)N[C@@H](CCCCNC(N)=O)C(=O)O [N-acetylhomocitrulline] ?
[A] Group 3

[Q] Input [H]/N=C(/N)NCC(=O)O [guanidinoacetate]
[A] Group 3

[Q] Also, COc1cc(CC(=O)O)ccc1OS(=O)(=O)O [homovanillate sulfate] please.
[A] Group 2

[Q] Further, for O=C1O[C@H]([C@@H](O)CO)C(OS(=O)(=O)O)=C1O [ascorbic acid 3-sulfate*] ?
[A] Group 1
